# Assay comment: Apparent permeability from apical to basolateral side in MDR-MDCK cells overexpressing human p-glycoprotein at 5 uM after 120 mins
# Assay type: ADME, cell-based
# Run conditions: MDCK-MDR1
Observable: Papp A→B at 2 h, 5 µM (×10⁻⁶ cm/s)

a: CC(=O)O[C@@]12CO[C@@H]1C[C@H](O)[C@@]1(C)C(=O)[C@H](OC(=O)N3CCOCC3)C3=C(C)[C@@H](OC(=O)[C@H](O)[C@@H](NC(=O)c4ccccc4)c4ccccc4)C[C@@](O)([C@@H](OC(=O)c4ccccc4)[C@H]21)C3(C)C
b: CC(=O)O[C@@]12CO[C@@H]1C[C@H](O)[C@@]1(C)C(=O)[C@H](OC(=O)NCC(=O)O)C3=C(C)[C@@H](OC(=O)[C@H](O)[C@@H](NC(=O)c4ccccc4)c4ccccc4)C[C@@](O)([C@@H](OC(=O)c4ccccc4)[C@H]21)C3(C)C
Problem: Pick one: a or b . Which has the bigger Papp A→B at 2 h, 5 µM number? // respond with label for picked entry
Result: a
(a: 0.17 ×10⁻⁶ cm/s, b: 0.09 ×10⁻⁶ cm/s)

====

# Assay comment: Ratio of permeability from basolateral to apical over apical to basolateral side of the MDR-MDCK cells at 5 uM after 120 mins
# Format: ADME, cell-based
# Run conditions: human, MDCK-MDR1
Observable: efflux ratio at 2 h, 5 µM

Record smiles	efflux ratio at 2 h, 5 µM
CC(=O)O[C@@]12CO[C@@H]1C[C@H](O)[C@@]1(C)C(=O)[C@H](O)C3=C(C)[C@@H](OC(=O)[C@H](O)[C@@H](NC(=O)c4ccccc4)c4ccccc4)C[C@@](O)([C@@H](OC(=O)c4ccccc4)[C@H]21)C3(C)C	39

I: CC(=O)O[C@@]12CO[C@@H]1C[C@H](O)[C@@]1(C)C(=O)[C@H](OC(=O)N3CCOCC3)C3=C(C)[C@@H](OC(=O)[C@H](O)[C@@H](NC(=O)c4ccccc4)c4ccccc4)C[C@@](O)([C@@H](OC(=O)c4ccccc4)[C@H]21)C3(C)C
II: CC(=O)O[C@@]12CO[C@@H]1C[C@H](O)[C@@]1(C)C(=O)[C@H](OC(=O)NCC(=O)O)C3=C(C)[C@@H](OC(=O)[C@H](O)[C@@H](NC(=O)c4ccccc4)c4ccccc4)C[C@@](O)([C@@H](OC(=O)c4ccccc4)[C@H]21)C3(C)C
Problem: Which gives the smaller efflux ratio at 2 h, 5 µM number: I or II ? // respond with label for picked entry
Result: II
(II: 0.6, I: 133)

====

# Assay comment: Apparent permeability from basolateral to apical side in MDR-MDCK cells overexpressing human p-glycoprotein at 5 uM after 120 mins
# Type: ADME, cell-based
# Run conditions: MDCK-MDR1
Observable: Papp B→A at 2 h, 5 µM (×10⁻⁶ cm/s)
Give the quantity in ×10⁻⁶ cm/s, number only.

Problem: Any idea what its Papp B→A at 2 h, 5 µM is? The compound is CC(=O)O[C@H]1C(=O)[C@]2(C)[C@@H](OC(=O)NCC(=O)O)C[C@H]3OC[C@@]3(OC(C)=O)[C@H]2[C@H](OC(=O)c2ccccc2)[C@]2(O)C[C@H](OC(=O)[C@H](O)[C@@H](NC(=O)c3ccccc3)c3ccccc3)C(C)=C1C2(C)C
Result: 0.06
